Target: Norepinephrine transporter (Rattus norvegicus)
Sequence (Q9WTR4 whole entry): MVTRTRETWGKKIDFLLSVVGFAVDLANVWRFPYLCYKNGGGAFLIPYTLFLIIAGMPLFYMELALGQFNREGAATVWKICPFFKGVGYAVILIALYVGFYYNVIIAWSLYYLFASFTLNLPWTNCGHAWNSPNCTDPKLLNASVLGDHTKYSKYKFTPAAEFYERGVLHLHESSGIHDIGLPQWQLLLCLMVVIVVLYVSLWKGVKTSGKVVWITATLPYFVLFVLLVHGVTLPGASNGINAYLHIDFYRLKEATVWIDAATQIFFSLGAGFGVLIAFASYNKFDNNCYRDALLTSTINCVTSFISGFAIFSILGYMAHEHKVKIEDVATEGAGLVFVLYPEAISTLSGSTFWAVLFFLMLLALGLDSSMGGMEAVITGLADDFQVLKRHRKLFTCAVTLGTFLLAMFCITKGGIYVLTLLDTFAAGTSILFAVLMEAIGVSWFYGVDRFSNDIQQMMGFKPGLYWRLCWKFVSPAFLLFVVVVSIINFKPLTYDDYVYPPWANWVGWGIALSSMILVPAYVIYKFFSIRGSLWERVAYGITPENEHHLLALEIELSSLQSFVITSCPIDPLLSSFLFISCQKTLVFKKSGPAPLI
Assay: Inhibition of rat brain Norepinephrine transporter as accumulation of [3H]NE
pIC50: −log10 of the molar value.
endpointLabel: pIC50

Before answering, review these 2 worked examples.
{"columns": ["molecule", "measuredOn", "pIC50"],
 "data": [
  ["OC1CC(C(c2ccccc2)c2ccccc2)OCC1NCCc1ccc(F)cc1 (single isomer, unassigned)", "Norepinephrine transporter (Rattus norvegicus)", 7.11],
  ["COc1ccc(CNC2CC(C(c3ccccc3)c3ccccc3)OCC2O)cc1 (single isomer, unassigned)", "Norepinephrine transporter (Rattus norvegicus)", 5.74]
]}

A: O[C@@H]1CO[C@H](C(c2ccccc2)c2ccccc2)C[C@H]1NCc1ccccc1
B: COc1ccc(CN[C@@H]2C[C@@H](C(c3ccccc3)c3ccccc3)OC[C@H]2O)cc1
Task: Given the listed items, does A or B have the lesser reported pIC50? State your choice using its label.
Output: B
(B: 6.12, A: 6.47)

I: COc1ccc(CN[C@@H]2CO[C@H](C(c3ccccc3)c3ccccc3)C[C@H]2O)c(OC)c1
II: OC1COC(C(c2ccccc2)c2ccccc2)CC1NCc1ccccc1 (single isomer, unassigned)
III: O[C@@H]1C[C@@H](C(c2ccccc2)c2ccccc2)OC[C@H]1NCCc1ccc(F)cc1
Task: Order the entries by their reported pIC50, beginning at the minimum. Answer by writing out the labels in the requested order.
Output: II, III, I

---

Molecular target: Monoamine transporters; Norepininephrine & dopamine (Rattus norvegicus) (UniProt P23977+Q9WTR4)
Experiment: Ratio between Dopamine transporter and Norepinephrine transporter uptake
Assay type: protein assay
endpointLabel: Ratio

{"columns": ["compound", "endpointLabel", "dataValue"],
 "data": [
  ["O[C@@H]1C[C@@H](C(c2ccccc2)c2ccccc2)OC[C@H]1NCCc1ccc(F)cc1", "Ratio", 0.78],
  ["O[C@@H]1C[C@@H](C(c2ccccc2)c2ccccc2)OC[C@H]1NCc1ccc(F)cc1", "Ratio", 10.2],
  ["OC1COC(C(c2ccccc2)c2ccccc2)CC1NCc1ccccc1 (single isomer, unassigned)", "Ratio", 0.25],
  ["COc1ccc(CN[C@@H]2C[C@@H](C(c3ccccc3)c3ccccc3)OC[C@H]2O)cc1", "Ratio", 0.89],
  ["COc1cc(CN[C@@H]2CO[C@H](C(c3ccccc3)c3ccccc3)C[C@H]2O)cc(OC)c1", "Ratio", 0.99],
  ["O[C@@H]1CO[C@H](C(c2ccccc2)c2ccccc2)C[C@H]1NCc1ccccc1", "Ratio", 6.6],
  ["OC1CC(C(c2ccccc2)c2ccccc2)OCC1NCCc1ccc(F)cc1 (single isomer, unassigned)", "Ratio", 2.3],
  ["OC1CC(C(c2ccccc2)c2ccccc2)OCC1NCc1ccc(F)cc1 (single isomer, unassigned)", "Ratio", 0.31]
]}

1: COc1ccc(CNC2CC(C(c3ccccc3)c3ccccc3)OCC2O)cc1 (single isomer, unassigned)
2: COc1ccc(CN[C@@H]2CO[C@H](C(c3ccccc3)c3ccccc3)C[C@H]2O)c(OC)c1
Task: // max by Ratio over [ 1 , 2 ] Give the label under which the chosen entry appears.
Output: 2
(2: 5.6, 1: 1.2)

---

Target: Sodium-dependent dopamine transporter (Rattus norvegicus)
Sequence (P23977 whole entry): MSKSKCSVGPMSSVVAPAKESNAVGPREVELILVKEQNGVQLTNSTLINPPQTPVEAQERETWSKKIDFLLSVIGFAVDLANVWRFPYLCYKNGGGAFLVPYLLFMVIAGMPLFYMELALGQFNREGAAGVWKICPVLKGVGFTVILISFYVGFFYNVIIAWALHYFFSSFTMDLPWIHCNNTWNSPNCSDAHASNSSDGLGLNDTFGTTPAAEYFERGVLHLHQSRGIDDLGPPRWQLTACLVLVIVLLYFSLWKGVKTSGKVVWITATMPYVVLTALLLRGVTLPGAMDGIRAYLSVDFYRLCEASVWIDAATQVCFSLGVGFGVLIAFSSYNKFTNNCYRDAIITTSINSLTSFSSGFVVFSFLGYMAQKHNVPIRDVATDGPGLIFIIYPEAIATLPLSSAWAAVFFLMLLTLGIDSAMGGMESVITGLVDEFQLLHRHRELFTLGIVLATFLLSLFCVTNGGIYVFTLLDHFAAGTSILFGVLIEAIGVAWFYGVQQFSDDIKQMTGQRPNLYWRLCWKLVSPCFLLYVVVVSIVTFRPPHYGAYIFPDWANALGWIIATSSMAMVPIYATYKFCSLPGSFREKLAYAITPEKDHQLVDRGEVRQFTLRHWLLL
Experiment: Inhibition of [3H]WIN-35428 binding to rat brain dopamine transporter
pIC50: −log10 of the molar value.
endpointLabel: pIC50

{"columns": ["compound", "measuredOn", "endpointLabel", "dataValue"],
 "data": [
  ["OC1CC(C(c2ccccc2)c2ccccc2)OCC1NCc1ccc(F)cc1 (single isomer, unassigned)", "Sodium-dependent dopamine transporter (Rattus norvegicus)", "pIC50", 5.99]
]}

I: COc1cc(CN[C@@H]2CO[C@H](C(c3ccccc3)c3ccccc3)C[C@H]2O)cc(OC)c1
II: COc1ccc(CN[C@@H]2CO[C@H](C(c3ccccc3)c3ccccc3)C[C@H]2O)c(OC)c1
Task: Name the one with the greater pIC50 value, either I or II as given. Respond using the label that marks the chosen record.
Output: I
(I: 6.53, II: 5.97)

---

Biological target: Sodium-dependent serotonin transporter (Rattus norvegicus)
Assay: Inhibition of rat brain Serotonin transporter uptake as [3H]5-HT accumulation
pIC50: −log10 of the molar value.
endpointLabel: pIC50

{"columns": ["molecule", "dataValue"],
 "data": [
  ["COc1ccc(CNC2CC(C(c3ccccc3)c3ccccc3)OCC2O)cc1 (single isomer, unassigned)", 5.42]
]}

a: O[C@@H]1C[C@@H](C(c2ccccc2)c2ccccc2)OC[C@H]1NCCc1ccc(F)cc1
b: COc1ccc(CN[C@@H]2C[C@@H](C(c3ccccc3)c3ccccc3)OC[C@H]2O)cc1
Task: Could you kindly indicate whether a or b has the higher pIC50 value? Field: selected label. Fill in the label of the entry you choose.
Output: b
(b: 5.97, a: 5.45)

---

Target: Sodium-dependent dopamine transporter (Rattus norvegicus)
Assay: Inhibition of rat brain dopamine transporter as accumulation of [3H]DA
Assay type: functional
pKi: −log10 of the molar value.
endpointLabel: pKi

{"columns": ["compound", "pKi"],
 "data": [
  ["O[C@@H]1C[C@@H](C(c2ccccc2)c2ccccc2)OC[C@H]1NCCc1ccc(F)cc1", 6.50],
  ["COc1ccc(CNC2CC(C(c3ccccc3)c3ccccc3)OCC2O)cc1 (single isomer, unassigned)", 5.70],
  ["COc1ccc(CN[C@@H]2CO[C@H](C(c3ccccc3)c3ccccc3)C[C@H]2O)c(OC)c1", 6.28],
  ["OC1COC(C(c2ccccc2)c2ccccc2)CC1NCc1ccccc1 (single isomer, unassigned)", 6.15],
  ["COc1ccc(CN[C@@H]2C[C@@H](C(c3ccccc3)c3ccccc3)OC[C@H]2O)cc1", 6.21],
  ["O[C@@H]1CO[C@H](C(c2ccccc2)c2ccccc2)C[C@H]1NCc1ccccc1", 5.71],
  ["O[C@@H]1C[C@@H](C(c2ccccc2)c2ccccc2)OC[C@H]1NCc1ccc(F)cc1", 6.90]
]}

A: COc1cc(CN[C@@H]2CO[C@H](C(c3ccccc3)c3ccccc3)C[C@H]2O)cc(OC)c1
B: OC1CC(C(c2ccccc2)c2ccccc2)OCC1NCCc1ccc(F)cc1 (single isomer, unassigned)
Task: Hi there, can you help? I need to know whether A or B has lower measured pKi. Respond using the label that marks the chosen record.
Output: B
(B: 6.79, A: 7.00)

---

Biological target: Sodium-dependent serotonin transporter (Rattus norvegicus, UniProt P31652)
Sequence (P31652 whole entry): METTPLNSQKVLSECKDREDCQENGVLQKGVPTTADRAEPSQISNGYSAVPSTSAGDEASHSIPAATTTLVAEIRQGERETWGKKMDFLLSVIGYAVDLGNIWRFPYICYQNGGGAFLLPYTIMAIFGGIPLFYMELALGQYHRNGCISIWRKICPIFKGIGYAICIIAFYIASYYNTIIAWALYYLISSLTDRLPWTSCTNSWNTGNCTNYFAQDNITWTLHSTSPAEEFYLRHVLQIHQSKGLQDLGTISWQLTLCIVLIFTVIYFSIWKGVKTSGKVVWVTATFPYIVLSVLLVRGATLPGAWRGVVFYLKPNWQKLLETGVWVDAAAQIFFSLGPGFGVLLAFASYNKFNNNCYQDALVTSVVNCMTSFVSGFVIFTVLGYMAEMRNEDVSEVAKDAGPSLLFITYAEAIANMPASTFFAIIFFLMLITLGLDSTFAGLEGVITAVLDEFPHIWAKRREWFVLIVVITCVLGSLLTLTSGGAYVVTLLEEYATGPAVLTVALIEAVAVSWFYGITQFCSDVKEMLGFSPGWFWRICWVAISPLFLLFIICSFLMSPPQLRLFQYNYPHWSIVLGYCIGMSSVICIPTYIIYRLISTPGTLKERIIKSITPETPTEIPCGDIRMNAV
Assay: Inhibition of rat brain Serotonin transporter as accumulation of [3H]5-HT
pKi: −log10 of the molar value.
endpointLabel: pKi

{"columns": ["compound", "measuredOn", "endpointLabel", "dataValue"],
 "data": [
  ["OC1COC(C(c2ccccc2)c2ccccc2)CC1NCc1ccccc1 (single isomer, unassigned)", "Sodium-dependent serotonin transporter (Rattus norvegicus, UniProt P31652)", "pKi", 5.40],
  ["OC1CC(C(c2ccccc2)c2ccccc2)OCC1NCc1ccc(F)cc1 (single isomer, unassigned)", "Sodium-dependent serotonin transporter (Rattus norvegicus, UniProt P31652)", "pKi", 5.30],
  ["COc1ccc(CN[C@@H]2C[C@@H](C(c3ccccc3)c3ccccc3)OC[C@H]2O)cc1", "Sodium-dependent serotonin transporter (Rattus norvegicus, UniProt P31652)", "pKi", 6.10],
  ["O[C@@H]1CO[C@H](C(c2ccccc2)c2ccccc2)C[C@H]1NCc1ccccc1", "Sodium-dependent serotonin transporter (Rattus norvegicus, UniProt P31652)", "pKi", 5.02],
  ["COc1cc(CN[C@@H]2CO[C@H](C(c3ccccc3)c3ccccc3)C[C@H]2O)cc(OC)c1", "Sodium-dependent serotonin transporter (Rattus norvegicus, UniProt P31652)", "pKi", 7.71],
  ["O[C@@H]1C[C@@H](C(c2ccccc2)c2ccccc2)OC[C@H]1NCCc1ccc(F)cc1", "Sodium-dependent serotonin transporter (Rattus norvegicus, UniProt P31652)", "pKi", 5.49],
  ["O[C@@H]1C[C@@H](C(c2ccccc2)c2ccccc2)OC[C@H]1NCc1ccccc1", "Sodium-dependent serotonin transporter (Rattus norvegicus, UniProt P31652)", "pKi", 6.15],
  ["OC1CC(C(c2ccccc2)c2ccccc2)OCC1NCc1ccccc1 (single isomer, unassigned)", "Sodium-dependent serotonin transporter (Rattus norvegicus, UniProt P31652)", "pKi", 5.26],
  ["OC1CC(C(c2ccccc2)c2ccccc2)OCC1NCCc1ccc(F)cc1 (single isomer, unassigned)", "Sodium-dependent serotonin transporter (Rattus norvegicus, UniProt P31652)", "pKi", 5.58],
  ["O[C@@H]1C[C@@H](C(c2ccccc2)c2ccccc2)OC[C@H]1NCc1ccc(F)cc1", "Sodium-dependent serotonin transporter (Rattus norvegicus, UniProt P31652)", "pKi", 6.22]
]}

I: COc1ccc(CNC2CC(C(c3ccccc3)c3ccccc3)OCC2O)cc1 (single isomer, unassigned)
II: COc1ccc(CN[C@@H]2CO[C@H](C(c3ccccc3)c3ccccc3)C[C@H]2O)c(OC)c1
Task: Which value of pKi is numerically greater: that of I or that of II ? Let me know the label of the one you choose.
Output: II

Origin of the recorded values: ChEMBL document CHEMBL1140340
